- Target under test: T1, Anti-HRP antibody(r)
- T1 construct: Rabbit IgG, immobilised on a microplate; also called rabbit anti-HRP antibodies; anti-HRP antibody from a rabbit
- Procedure details: labelled peptide on immobilised rabbit anti-HRP antibody, papain cleavage
Ends that are not written are not given here. FAM = carboxyfluorescein (FAM) fluorescent label
Property: increase of fluorescence intensity in the solution after papain treatment (%)

[
  {
    "Binder": "TYLEWYPQKPGQSPKLLIYK (not fully specified (N-terminus), Synthetic 20-mer homologous to the FR2 region of the light chain; The label differs between experiments; also called L1 switching peptide; first peptide compound L1) [L1 peptide]",
    "Observed result": 1030
  },
  {
    "Binder": "SYWIHWVKQRPGQGLEWIGE (not fully specified (N-terminus), Synthetic 20-mer homologous to the FR2 region of the heavy chain; The fluorescent label differs between experiments; also called H1 switching peptide; third peptide compound H1) [H1 peptide]",
    "Observed result": 2180
  },
  {
    "Binder": "VYYCAREPTGTGIYFDVWGK (not fully specified (N-terminus), Synthetic 20-mer homologous to the FR3 or FR4 region of the heavy chain; The label differs between experiments; also called H2 switching peptide; fourth peptide compound H2) [H2 peptide]",
    "Observed result": 2360
  },
  {
    "Binder": "{FAM}-VYYCFQGSHVPFTK (Synthetic 14-mer homologous to the FR3 or FR4 region of the light chain; also called L2 switching peptide; second peptide compound L2) [L2 peptide]",
    "Observed result": 2450
  }
]

Provenance of the data: patent US20250341517A1
